Experiment: Pharmacokinetics and bioavailability in minipigs after SC administration (Example 8)
Assay type: in vivo, Gottingen minipig
Details: Gottingen, minipig, plasma, 4 ug/kg; SC single site 4 μg/kg, male 1-0771
parameterMeasured: half-life (h)
Report the value in h with no unit label.

### Prompt What does the record list as half-life for OCc1cc(C(O)CNCCCCCCOCCCCc2ccccc2)ccc1O (racemic) ?
### Response 11.4

---

Assay: Pharmacokinetics and bioavailability in minipigs after SC administration (Example 8)
Type: in vivo, Gottingen minipig
Settings: Gottingen, minipig, plasma, 4 ug/kg; SC single site 4 μg/kg, female 2-0623; read-out: Tmax
parameterMeasured: Tmax (min)
Number only, in min; omit the unit.

### Prompt GET /values?readout=Tmax&item= OCc1cc(C(O)CNCCCCCCOCCCCc2ccccc2)ccc1O (racemic) [Salmeterol]
### Response 30

---

Assay: Pharmacokinetics and bioavailability in minipigs after SC administration (Example 8)
Type: in vivo, Gottingen minipig
Conditions: both sexes, Gottingen, minipig, plasma, 4 ug/kg; SC 4 μg/kg, male and female; read-out: Tmax values
Protocol: Plasma concentrations of salmeterol were monitored in a male and a female Gottingen minipig after SC administration of salmeterol xinafoate. SC dose of 4 μg/kg salmeterol xinafoate was administered as a single bolus dose. […] Samples were processed to plasma by centrifugation under refrigeration and stored frozen at approximately −70° C. (±15° C.) until analysis. Other calculations were done using Microsoft Excel® XP. The bioanalytical and pharmacokinetic data were reported to 3 significant figures.
parameterMeasured: Tmax

### Prompt Suppose we examine the molecule OCc1cc(C(O)CNCCCCCCOCCCCc2ccccc2)ccc1O (stereo not shown) [salmeterol xinafoate] ; what Tmax value has been reported?
### Response 20 to 30 min

---

Assay: Pharmacokinetics and bioavailability in minipigs after SC administration (Example 8)
Assay type: in vivo, Gottingen minipig
Conditions: Gottingen, minipig, plasma, 4 ug/kg; SC single site 4 μg/kg, male 1-0771; read-out: Tmax
parameterMeasured: Tmax

### Prompt GET /values?readout=Tmax&item= OCc1cc(C(O)CNCCCCCCOCCCCc2ccccc2)ccc1O (racemic)
### Response 20 min

---

Assay: Pharmacokinetics and bioavailability in minipigs after SC administration (Example 8)
Type: in vivo, Gottingen minipig
Conditions: Gottingen, minipig, plasma, 4 ug/kg; SC single site 4 μg/kg, female 2-0623
Method: Plasma concentrations of salmeterol were monitored in a male and a female Gottingen minipig after SC administration of salmeterol xinafoate. SC dose of 4 μg/kg salmeterol xinafoate was administered as a single bolus dose. […] Samples were processed to plasma by centrifugation under refrigeration and stored frozen at approximately −70° C. (±15° C.) until analysis. Other calculations were done using Microsoft Excel® XP. The bioanalytical and pharmacokinetic data were reported to 3 significant figures.
parameterMeasured: Cmax

### Prompt Look up Cmax: OCc1cc(C(O)CNCCCCCCOCCCCc2ccccc2)ccc1O (racemic) [Salmeterol]
### Response 0.433 ng/mL

---

Experiment: Pharmacokinetics and bioavailability in minipigs after SC administration (Example 8)
Format: in vivo, Gottingen minipig
Conditions: Gottingen, minipig, plasma, 4 ug/kg; SC single site 4 μg/kg, female 2-0623
parameterMeasured: AUC(0-inf) (ng·h/mL)
Quick reminder: number only, in ng·h/mL, skip the unit.

### Prompt For OCc1cc(C(O)CNCCCCCCOCCCCc2ccccc2)ccc1O (racemic) [Salmeterol] , what is its reported AUC(0-inf)?
### Response 1.67
